- test target: T1, Spy_(29-124) H96D (UniProt P77754 52-147, H96D)
- T1 construct: source: E. coli BL21 (DE3), purified (Ni-NTA, cation exchange, SEC); not shown: His6, N-terminal, cleaved; SUMO, N-terminal, cleaved
- T1 sequence (looked up): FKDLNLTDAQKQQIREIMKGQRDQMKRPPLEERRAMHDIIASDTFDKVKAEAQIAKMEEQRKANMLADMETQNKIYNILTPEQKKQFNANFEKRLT
- assay protocol: BLI; Octet RED96; client biotinylated and loaded on streptavidin sensors; Spy or Spy variant in solution at 0.25, 0.5, 1, 1.5 and 2 μM; 40 mM HEPES, 150 mM NaCl, pH 7.5; Kd calculated as koff/kon
- protocol conditions: both partners purified
recorded metric: Kd (µM)
Hi! Could you send only the number? It should be in µM, unit omitted.

Query: Using the record for Im7 H40W L53A I54A (natural protein, biotin (EZ-link NHS-biotin, 1:1 molar ratio of biotin to protein), Im7 (colicin E7 immunity protein) with H40W L53A I54A; Spy was made with an N-terminal His6-SUMO tag that was cleaved; also called Im7AAW; partially folded client; source: purified by a similar procedure to Spy) MELKNSISDYTEAEFVQLLKEIEKENVAATDDVLDVLLEWFVKITEHPDGTDAAYYPSDNRDDSPEGIVKEIKEWRAANGKPGFKQG , report its Kd.
Response: 1.26
